Reported values: IC50 for RNA-directed RNA polymerase (Hepacivirus hominis, UniProt O39930), one per item.
Write the value in µM as a bare number.

Reference set, count: 3
CC(C)CCN1C(=O)C(C2=NS(=O)(=O)c3ccccc3N2)=C(O)[C@@H]1C(C)(C)C = 0.018
CC(C)(C)[C@H]1C(O)=C(C2=NS(=O)(=O)c3ccccc3N2)C(=O)N1CCC1CC1 = 0.53
CC(C)CCN1C(=O)C(C2=NS(=O)(=O)c3ccccc3N2)=C(O)[C@@H]1C(C)C = 0.147

Let us move to another entry and its IC50.
Case CC(C)CCn1c(=O)c(C2=NS(=O)(=O)c3ccccc3N2)c(O)c2ccccc21 , RNA-directed RNA polymerase (Hepacivirus hominis, UniProt O39930), IC50 recorded as 0.2

---

What follows is a record of IC50 for UniProtKB O39930.
Quick reminder: number only, in nM, skip the unit.

Consider the worked cases shown below.
CC(C)(C)CCN1C(=O)C(C2=NS(=O)(=O)c3ccccc3N2)=C(O)[C@@H]1C(C)(C)C = 1.7
CC(C)(C)[C@H]1C(O)=C(C2=NS(=O)(=O)c3ccccc3N2)C(=O)N1Cc1ccc(F)cc1 = 59

The record that follows has no IC50 shown yet.
Record O=C1C(C2=NS(=O)(=O)c3ccccc3N2)=C(O)[C@H](Cc2cccnc2)N1Cc1ccc(F)cc1 , field IC50: 2470

Provenance of the data: ChEMBL document CHEMBL1146957
